The following molecules are listed with their measured Response bound at 50 nM mAb or Fab values.
- Tested on: MfANGPTL4(1-130)-His
- Sequence (as listed by the source): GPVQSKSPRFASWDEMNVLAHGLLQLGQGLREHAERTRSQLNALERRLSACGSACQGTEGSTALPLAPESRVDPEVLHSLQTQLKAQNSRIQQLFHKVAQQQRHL
- Test Description: BIACORE, full mAb or Fab over amino-coupled MfANGPTL4(1-130)-His
- Assay type: binding, cynomolgus monkey
- Condition Parameters: pH 7.2, 25° C., amino-coupled 1,028 RU

{"Molecule": "H1H268P: anti-hANGPTL4 antibody, hIgG1 isotype, HCVR/LCVR SEQ ID NOs 42/44 (antibody, V domains shown) VH: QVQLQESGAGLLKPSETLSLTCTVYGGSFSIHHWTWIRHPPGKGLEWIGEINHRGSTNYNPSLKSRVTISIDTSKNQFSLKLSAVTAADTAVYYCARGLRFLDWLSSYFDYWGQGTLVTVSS VL: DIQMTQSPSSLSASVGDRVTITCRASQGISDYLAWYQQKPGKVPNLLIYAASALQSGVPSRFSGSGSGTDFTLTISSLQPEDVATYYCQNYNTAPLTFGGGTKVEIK", "Response bound at 50 nM mAb or Fab": 279}
{"Molecule": "H1H284P Fab: Fab fragment of H1H284P prepared by papain digestion (antibody, V domains shown) VH: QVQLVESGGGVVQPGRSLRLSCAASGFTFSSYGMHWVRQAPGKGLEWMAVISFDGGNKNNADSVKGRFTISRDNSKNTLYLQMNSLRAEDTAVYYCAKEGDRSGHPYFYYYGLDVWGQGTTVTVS VL: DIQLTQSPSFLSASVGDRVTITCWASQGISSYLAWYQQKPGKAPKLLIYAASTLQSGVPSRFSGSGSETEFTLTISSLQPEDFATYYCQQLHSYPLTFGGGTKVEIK", "Response bound at 50 nM mAb or Fab": 214}
{"Molecule": "H1H284P: anti-hANGPTL4 antibody, hIgG1 isotype, HCVR/LCVR SEQ ID NOs 90/92 (antibody, V domains shown) VH: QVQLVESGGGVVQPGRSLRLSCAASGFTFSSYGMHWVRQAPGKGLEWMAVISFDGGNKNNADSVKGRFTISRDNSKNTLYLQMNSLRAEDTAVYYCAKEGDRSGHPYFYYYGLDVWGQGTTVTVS VL: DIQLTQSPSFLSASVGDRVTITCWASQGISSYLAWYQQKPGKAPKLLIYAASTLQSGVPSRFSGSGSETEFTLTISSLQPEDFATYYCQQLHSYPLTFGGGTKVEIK", "Response bound at 50 nM mAb or Fab": 414}
{"Molecule": "H1H268P Fab: Fab fragment of H1H268P prepared by papain digestion (antibody, V domains shown) VH: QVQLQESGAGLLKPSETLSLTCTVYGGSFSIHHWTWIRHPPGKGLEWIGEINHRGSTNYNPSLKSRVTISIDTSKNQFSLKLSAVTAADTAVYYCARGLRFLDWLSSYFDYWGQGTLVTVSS VL: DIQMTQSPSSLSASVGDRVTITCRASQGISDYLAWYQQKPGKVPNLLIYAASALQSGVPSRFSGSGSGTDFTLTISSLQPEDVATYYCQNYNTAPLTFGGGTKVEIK", "Response bound at 50 nM mAb or Fab": 167}

From: patent US9120851B2
